pKi listing for selected compounds.
subject-of-test: hCA XII (Homo sapiens)
Sequence (O43570 25-354): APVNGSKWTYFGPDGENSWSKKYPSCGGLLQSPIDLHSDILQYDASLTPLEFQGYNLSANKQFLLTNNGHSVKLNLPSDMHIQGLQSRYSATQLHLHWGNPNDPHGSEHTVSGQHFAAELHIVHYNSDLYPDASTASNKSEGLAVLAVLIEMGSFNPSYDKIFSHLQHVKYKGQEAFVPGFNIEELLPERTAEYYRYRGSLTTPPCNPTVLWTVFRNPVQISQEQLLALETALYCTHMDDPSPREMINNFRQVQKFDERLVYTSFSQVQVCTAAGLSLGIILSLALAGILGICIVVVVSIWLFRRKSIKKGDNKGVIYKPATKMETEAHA
Remember the convention: pKi equals -log10 of concentration in molar.

Known results for compounds:
> print(dat)
                                   compound         subject.of.test  endpoint.result
1  COCCOc1cc2ncnc(Nc3cccc(-c4cn(CCOCCOCCOCCNC(=S)Nc5ccc(S(N)(=O)=O)cc5)nn4)c3)c2cc1OCCOC  hCA XII (Homo sapiens)             8.27
2  COCCOc1cc2ncnc(Nc3cccc(-c4cn(CCOCCOCCOCCNC(=S)NCCc5ccc(S(N)(=O)=O)cc5)nn4)c3)c2cc1OCCOC  hCA XII (Homo sapiens)             8.19
3  COCCOc1cc2ncnc(Nc3cccc(-c4cn(CCOCCOCCOCCNC(=S)Nc5ccc(S(N)(=O)=O)c(C)c5Br)nn4)c3)c2cc1OCCOC  hCA XII (Homo sapiens)             7.16
4  COCCOc1cc2ncnc(Nc3cccc(-c4cn(CCOCCOCCOCCOCCOCCNC(=O)Nc5cccc(S(N)(=O)=O)c5)nn4)c3)c2cc1OCCOC [compound 12a]  hCA XII (Homo sapiens)             5.19
5  COCCOc1cc2ncnc(Nc3cccc(-c4cn(CCOCCOCCOCCOCCOCCNC(=O)NCc5ccc(S(N)(=O)=O)cc5)nn4)c3)c2cc1OCCOC [compound 12c]  hCA XII (Homo sapiens)             6.03

Note: attention shifts to another entry.
The reported pKi value, hCA XII (Homo sapiens), for COCCOc1cc2ncnc(Nc3cccc(-c4cn(CCOCCOCCOCCOCCOCCNC(=S)NCCc5ccc(S(N)(=O)=O)cc5)nn4)c3)c2cc1OCCOC [compound 14d] reads 7.02
